target: T1, soluble KDR Ig4-7 domain (human, UniProt P35968 328-764); assay: ELISA, KDR Ig4-7 coat (1:1 diln.), antibody 1 ug/mL
T1 construct: domain: Ig4-7 domain; also called b-KDRIg4-7-myc-his; Ig4-7 domain of KDR; not shown: myc-his tag of the pSecTag construct
T1 sequence (P35968 328-764): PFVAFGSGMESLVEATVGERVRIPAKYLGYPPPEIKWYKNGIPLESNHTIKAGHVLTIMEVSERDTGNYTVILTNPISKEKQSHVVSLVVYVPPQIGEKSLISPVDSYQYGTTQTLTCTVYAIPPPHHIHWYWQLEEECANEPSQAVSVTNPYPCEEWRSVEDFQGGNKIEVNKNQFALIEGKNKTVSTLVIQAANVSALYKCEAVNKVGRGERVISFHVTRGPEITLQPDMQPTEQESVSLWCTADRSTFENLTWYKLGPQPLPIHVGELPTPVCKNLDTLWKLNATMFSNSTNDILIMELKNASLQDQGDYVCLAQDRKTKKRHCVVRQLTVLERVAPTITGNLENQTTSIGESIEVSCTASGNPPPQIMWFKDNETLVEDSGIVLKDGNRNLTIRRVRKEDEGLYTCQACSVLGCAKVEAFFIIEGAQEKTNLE
observationType: ELISA reading

* 27A3 (antibody, V domains shown, Fully human monoclonal antibody from a XenoMouse hybridoma (IgG2 or IgG4 strain), purified) VH: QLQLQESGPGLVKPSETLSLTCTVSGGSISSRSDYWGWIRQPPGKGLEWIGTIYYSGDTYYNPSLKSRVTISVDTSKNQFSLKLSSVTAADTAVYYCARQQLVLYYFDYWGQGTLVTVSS VL: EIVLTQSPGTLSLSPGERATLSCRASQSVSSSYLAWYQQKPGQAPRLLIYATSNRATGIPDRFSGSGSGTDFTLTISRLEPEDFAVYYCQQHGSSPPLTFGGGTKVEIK | 0.078
* 31E11 (antibody, V domains shown, Fully human monoclonal antibody from a XenoMouse hybridoma (IgG2 or IgG4 strain), purified) VH: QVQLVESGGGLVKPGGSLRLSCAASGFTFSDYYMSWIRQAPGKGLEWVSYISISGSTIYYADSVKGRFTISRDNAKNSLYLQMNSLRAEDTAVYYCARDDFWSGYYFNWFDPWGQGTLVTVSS VL: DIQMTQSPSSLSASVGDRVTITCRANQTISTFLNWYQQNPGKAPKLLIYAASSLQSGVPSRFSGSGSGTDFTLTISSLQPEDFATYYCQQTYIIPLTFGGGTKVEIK | 0.107
* 24B3 (antibody, V domains shown, Fully human monoclonal antibody from a XenoMouse hybridoma (IgG2 or IgG4 strain), purified) VH: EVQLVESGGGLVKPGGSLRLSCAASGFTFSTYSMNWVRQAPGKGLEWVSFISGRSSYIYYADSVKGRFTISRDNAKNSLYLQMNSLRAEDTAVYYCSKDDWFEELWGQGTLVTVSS VL: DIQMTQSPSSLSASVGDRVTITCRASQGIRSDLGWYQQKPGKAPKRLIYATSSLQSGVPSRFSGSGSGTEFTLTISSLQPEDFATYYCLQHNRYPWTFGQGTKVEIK | 3.47

Origin of values: patent US20100260765A1
